// data source = ChEMBL document CHEMBL4393665

# experimental system: ATP-dependent translocase ABCB1 (Homo sapiens)
# Sequence (P08183 whole entry): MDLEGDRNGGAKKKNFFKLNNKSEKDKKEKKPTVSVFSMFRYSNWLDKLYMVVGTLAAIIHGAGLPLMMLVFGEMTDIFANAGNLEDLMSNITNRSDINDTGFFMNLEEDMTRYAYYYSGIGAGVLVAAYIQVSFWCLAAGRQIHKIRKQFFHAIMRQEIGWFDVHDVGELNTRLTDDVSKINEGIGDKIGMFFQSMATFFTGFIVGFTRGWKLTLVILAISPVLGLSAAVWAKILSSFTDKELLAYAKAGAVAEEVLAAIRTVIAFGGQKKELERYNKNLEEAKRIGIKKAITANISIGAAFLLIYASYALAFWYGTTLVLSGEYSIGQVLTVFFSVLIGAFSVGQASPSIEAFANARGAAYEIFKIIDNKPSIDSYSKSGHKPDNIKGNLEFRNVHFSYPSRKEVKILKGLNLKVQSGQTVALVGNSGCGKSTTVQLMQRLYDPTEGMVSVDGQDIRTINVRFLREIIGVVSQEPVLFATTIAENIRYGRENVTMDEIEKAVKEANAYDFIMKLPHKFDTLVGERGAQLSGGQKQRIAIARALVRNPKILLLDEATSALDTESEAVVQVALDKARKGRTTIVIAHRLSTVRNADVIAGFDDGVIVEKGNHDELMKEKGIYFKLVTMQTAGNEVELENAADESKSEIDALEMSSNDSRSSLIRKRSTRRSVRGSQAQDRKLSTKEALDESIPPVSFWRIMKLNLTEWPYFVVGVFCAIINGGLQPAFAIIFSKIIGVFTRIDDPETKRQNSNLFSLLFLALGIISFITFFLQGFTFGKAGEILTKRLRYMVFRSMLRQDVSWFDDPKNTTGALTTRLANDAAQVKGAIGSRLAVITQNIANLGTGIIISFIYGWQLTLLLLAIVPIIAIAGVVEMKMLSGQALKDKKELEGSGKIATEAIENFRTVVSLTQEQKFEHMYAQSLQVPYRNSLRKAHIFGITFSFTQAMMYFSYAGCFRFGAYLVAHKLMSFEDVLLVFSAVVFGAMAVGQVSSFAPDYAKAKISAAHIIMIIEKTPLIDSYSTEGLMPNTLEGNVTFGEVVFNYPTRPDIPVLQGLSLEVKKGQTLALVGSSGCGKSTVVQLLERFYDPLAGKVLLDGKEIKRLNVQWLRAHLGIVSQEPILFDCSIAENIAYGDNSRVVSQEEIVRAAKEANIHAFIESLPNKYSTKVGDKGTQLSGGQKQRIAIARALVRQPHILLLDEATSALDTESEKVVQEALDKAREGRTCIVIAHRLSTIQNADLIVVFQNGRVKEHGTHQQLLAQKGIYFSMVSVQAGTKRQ
# experimental protocol: Inhibition of P-glycoprotein (unknown origin) in MDCK-MDR1 assessed as inhibtion of calcein-AM transport incubated for 30 mins by fluorescence assay
pEC50: −log10 of the molar value.
measurement label: pEC50

Worked set:
[[record]]
smiles_data = "COc1cc(/C=C/C(=O)OCCCCCCCCN(C)CCOC(=O)c2cc(OC)c(OC)c(OC)c2)cc(OC)c1OC"
experimental_system = "ATP-dependent translocase ABCB1 (Homo sapiens)"
experimental_result = 6.52

[[record]]
smiles_data = "COc1cc(/C=C/C(=O)OCCCCCCN(C)CCCCOC(=O)c2cc(OC)c(OC)c(OC)c2)cc(OC)c1OC"
experimental_system = "ATP-dependent translocase ABCB1 (Homo sapiens)"
experimental_result = 6.70

[[record]]
smiles_data = "COc1cc(/C=C/C(=O)OCCCCCCCN(C)CCCOC(=O)c2c3ccccc3cc3ccccc23)cc(OC)c1OC"
experimental_system = "ATP-dependent translocase ABCB1 (Homo sapiens)"
experimental_result = 6.64

[[record]]
smiles_data = "COc1cc(/C=C/C(=O)OCCCCCCN(C)CCCCOC(=O)c2c3ccccc3cc3ccccc23)cc(OC)c1OC"
experimental_system = "ATP-dependent translocase ABCB1 (Homo sapiens)"
experimental_result = 6.28

[[record]]
smiles_data = "COc1cc(/C=C/C(=O)OCCCCN(C)CCCCCCOC(=O)c2c3ccccc3cc3ccccc23)cc(OC)c1OC"
experimental_system = "ATP-dependent translocase ABCB1 (Homo sapiens)"
experimental_result = 6.07


I = COc1cc(/C=C/C(=O)OCCN(C)CCCCCCCCOC(=O)c2c3ccccc3cc3ccccc23)cc(OC)c1OC
II = COc1cc(/C=C/C(=O)OCCCCCCCCN(C)CCOC(=O)c2c3ccccc3cc3ccccc23)cc(OC)c1OC
Inquiry: Form: Entry with minimum pEC50 (choose one): I / II # answer = label of selected item
Reply text: I
